Molecular target: human norepinephrine transporter (hNET) (Homo sapiens)
Sequence (P23975 whole entry): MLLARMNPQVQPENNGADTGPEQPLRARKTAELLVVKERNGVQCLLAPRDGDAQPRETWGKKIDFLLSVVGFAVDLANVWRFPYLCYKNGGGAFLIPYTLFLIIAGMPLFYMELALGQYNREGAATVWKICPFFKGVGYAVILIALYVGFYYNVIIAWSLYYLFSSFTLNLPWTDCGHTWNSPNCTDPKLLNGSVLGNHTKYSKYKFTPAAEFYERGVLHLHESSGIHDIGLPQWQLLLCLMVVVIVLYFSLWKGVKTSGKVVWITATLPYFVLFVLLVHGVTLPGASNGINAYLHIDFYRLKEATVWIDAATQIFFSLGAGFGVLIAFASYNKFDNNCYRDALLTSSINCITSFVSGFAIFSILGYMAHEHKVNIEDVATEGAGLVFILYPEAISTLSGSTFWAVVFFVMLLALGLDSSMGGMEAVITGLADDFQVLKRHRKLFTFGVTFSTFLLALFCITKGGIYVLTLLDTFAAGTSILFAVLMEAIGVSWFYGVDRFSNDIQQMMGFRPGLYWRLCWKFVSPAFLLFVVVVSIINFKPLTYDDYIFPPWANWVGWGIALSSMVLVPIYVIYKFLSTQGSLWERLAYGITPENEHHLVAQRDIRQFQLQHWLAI
Test: Saturation transport kinetics assays with intact C6-hNET cells
Assay type: cell-based
Conditions: intact C6-hNET cells, 5 min, 37 °C; mean ± SD, n = 4 or 5
The threshold is inclusive: Vmax of exactly 6 pmol/min/mg protein counts as condition met; values below receive condition not met.

Some solved entries appear below for comparison.
N=C(N)NCCc1ccc(F)c(O)c1 [4F-MHPG] ... condition met
N=[11C](N)NCCc1cccc(O)c1 [MHPG, [^11C]meta-hydroxyphenethylguanidine] ... condition met
N=[11C](N)NCCc1cc(O)ccc1F [6F-MHPG] ... condition not met
N=[11C](N)NCC(O)c1cccc(O)c1 (single isomer, unassigned; (-)) [GMO, (−)-N-[^11C]guanyl-meta-octopamine] ... condition not met

Note: attention shifts to another entry.
-- ask Vmax >= 6 pmol/min/mg protein for N=[11C](N)NCCc1ccc(O)cc1 [PHPG, [^11C]para-hydroxyphenethylguanidine] ?
-- reply condition not met

Reference for the values: paper PMC3596460
